inhibition overview
molecular target: Tissue alpha-L-fucosidase (Bos taurus) (UniProt Q2KIM0); assay: Inhibition of bovine kidney alpha-L-fucosidase using p-nitrophenyl glycoside as substrate assessed as release of p-nitrophenol at 1000 uM measured by spectrometric assay relative to control; type: tissue-based
Sequence (Q2KIM0 whole entry): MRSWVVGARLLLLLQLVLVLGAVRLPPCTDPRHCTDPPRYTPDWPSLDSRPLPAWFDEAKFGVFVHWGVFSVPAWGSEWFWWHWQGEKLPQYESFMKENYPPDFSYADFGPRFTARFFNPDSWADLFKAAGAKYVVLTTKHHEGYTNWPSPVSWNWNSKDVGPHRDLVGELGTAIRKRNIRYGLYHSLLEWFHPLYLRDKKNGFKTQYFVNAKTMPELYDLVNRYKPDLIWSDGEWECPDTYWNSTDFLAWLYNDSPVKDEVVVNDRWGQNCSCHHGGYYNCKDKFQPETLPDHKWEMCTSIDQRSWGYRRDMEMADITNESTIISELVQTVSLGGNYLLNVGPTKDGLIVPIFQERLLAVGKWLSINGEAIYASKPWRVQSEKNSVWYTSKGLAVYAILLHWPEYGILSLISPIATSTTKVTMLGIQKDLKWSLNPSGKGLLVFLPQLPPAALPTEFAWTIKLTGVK
# output: bare number, implied unit %

compound-string: CCCCC[C@]1(CO)NC[C@H](O)[C@@H](O)[C@@H]1O.Cl
inhibition / %: 12.4

Data request, read-out inhibition, for CCCCCCC[C@]1(CO)NC[C@H](O)[C@@H](O)[C@@H]1O.Cl
45.9

What inhibition value was documented for this compound, CCCCCCCCCC[C@]1(CO)NC[C@H](O)[C@@H](O)[C@@H]1O.Cl ?
0.9

---

tested on: Prunus dulcis; assay: Inhibition of almond beta-glucosidase using p-nitrophenyl glycoside as substrate assessed as release of p-nitrophenol at 1000 uM measured by spectrometric assay relative to control
Each entry belongs to exactly one class, chosen by where its inhibition falls: band 1 (below 7%), band 2 (7% to below 10%), band 3 (10% or more)

compound-string: CCCC[C@]1(CO)NC[C@H](O)[C@@H](O)[C@@H]1O.Cl
class-name: band 3

In plain terms, what class is CCCCC[C@@]1(CO)NC[C@H](O)[C@@H](O)[C@@H]1O.Cl ?
band 1

# bin label for CCCCC[C@]1(CO)NC[C@H](O)[C@@H](O)[C@@H]1O.Cl
band 3

Which inhibition band matches CCCCCCC[C@]1(CO)NC[C@H](O)[C@@H](O)[C@@H]1O.Cl ?
band 3

Into which category would you place CCCC[C@@]1(CO)NC[C@H](O)[C@@H](O)[C@@H]1O.Cl ?
band 1

// return the class label for CCCCCCCCCC[C@@]1(CO)NC[C@H](O)[C@@H](O)[C@@H]1O.Cl
band 2

Hey, which category is CCCCCCCCC[C@]1(CO)NC[C@H](O)[C@@H](O)[C@@H]1O.Cl in, do you know?
band 3

Where would CCCCCCCCCCCC[C@@]1(CO)NC[C@H](O)[C@@H](O)[C@@H]1O.Cl land among the classes by reported inhibition?
band 2

Band for the recorded inhibition of C[C@@]1(CO)NC[C@H](O)[C@@H](O)[C@@H]1O.Cl ?
band 2

Band for CCC[C@@]1(CO)NC[C@H](O)[C@@H](O)[C@@H]1O.Cl ?
band 3

// bin(item) where item = CC[C@@]1(CO)NC[C@H](O)[C@@H](O)[C@@H]1O.Cl
band 1

Could you tell me which band CCCCCC[C@]1(CO)NC[C@H](O)[C@@H](O)[C@@H]1O.Cl belongs to?
band 3

Please let me know in which category the item CCCCCCCC[C@]1(CO)NC[C@H](O)[C@@H](O)[C@@H]1O.Cl belongs.
band 3

Field: class (inhibition) — entry: CCC[C@]1(CO)NC[C@H](O)[C@@H](O)[C@@H]1O.Cl
band 1

Category of OC[C@H]1NC[C@H](O)[C@@H](O)[C@@H]1O , please.
band 3

For the record CCCCCCCCCCC[C@@]1(CO)NC[C@H](O)[C@@H](O)[C@@H]1O.Cl , report the class its inhibition corresponds to.
band 1

Form: Item = CCCCCC[C@@]1(CO)NC[C@H](O)[C@@H](O)[C@@H]1O.Cl ; Class = ?
band 1

Consider C[C@]1(CO)NC[C@H](O)[C@@H](O)[C@@H]1O.Cl . To which inhibition class does it belong?
band 1

Kindly state the category for this compound: CC[C@]1(CO)NC[C@H](O)[C@@H](O)[C@@H]1O.Cl
band 1
